Consider the following molecules and their measured Relative Rate (2.7 mM) readings.
- Subject of test: viral α2,3-sialyltransferase (Myxoma virus, UniProt Q9YJT3)
- Assay type: biochemical
- Experimental conditions: acceptor 2.7 mM; relative rate of sialic acid transfer, LacNAc-O-gr = 100; 37° C., pH 6.1
Experimental endpoint: Relative Rate (2.7 mM)

entry_smiles=COC(=O)CCCCCCCCO[C@@H]1O[C@H](CO)[C@@H](O[C@@H]2O[C@@H](C)[C@@H](O)[C@@H](O)[C@@H]2O)[C@H](O[C@@H]2O[C@H](CO)[C@H](O)[C@H](O)[C@H]2O)[C@H]1NC(C)=O subject_of_test="viral α2,3-sialyltransferase (Myxoma virus, UniProt Q9YJT3)" experimental_endpoint="Relative Rate (2.7 mM)" comparative_sign== result_number=50
entry_smiles=COC(=O)CCCCCCCCO[C@@H]1O[C@H](CO)[C@@H](O[C@@H]2O[C@H](CO)[C@H](O)[C@H](O)[C@H]2O)[C@H](O)[C@H]1NC(C)=O subject_of_test="viral α2,3-sialyltransferase (Myxoma virus, UniProt Q9YJT3)" experimental_endpoint="Relative Rate (2.7 mM)" comparative_sign== result_number=100
entry_smiles=OC[C@H]1O[C@H](Oc2ccccc2)[C@H](O)[C@@H](O)[C@H]1O subject_of_test="viral α2,3-sialyltransferase (Myxoma virus, UniProt Q9YJT3)" experimental_endpoint="Relative Rate (2.7 mM)" comparative_sign=< result_number=1
